# assay.method.text: Volume of distribution at steady state in human
# condition.set: in vivo
In this section, each of the compounds is paired with its reported Vd.
metric: Vd (L/kg)

CC(C(=O)O)c1ccc(C(=O)c2cccs2)cc1 (configuration not stated) | 0.04
CC(=O)Nc1ccc(O)cc1 | 1
CCN1CCCC1CNC(=O)c1cc(S(N)(=O)=O)ccc1OC (configuration not stated) [SULPIRIDE] | 2.72
CCCc1nc(C)c2c(=O)[nH]c(-c3cc(S(=O)(=O)N4CCN(CC)CC4)ccc3OCC)nn12 | 3
O=C1NCC2(CCN(CCc3ccccc3)CC2)O1 [FENSPIRIDE] | 3
O=C1C(O)=C([C@H]2CC[C@H](c3ccc(Cl)cc3)CC2)C(=O)c2ccccc21 | 0.6
Nc1nc(O)c2ncn(COC(CO)CO)c2n1 | 1

----------
In this section, each of the compounds is paired with its reported clearance.
# assay.method.text: clinical
# condition.set: human, in vivo
metric: clearance (mL/min/kg)

Cc1onc(-c2ccccc2Cl)c1C(=O)N[C@@H]1C(=O)N2[C@@H]1SC(C)(C)[C@@H]2C(=O)O | 1.6
COc1cc([C@@H]2c3cc4c(cc3[C@@H](O[C@@H]3O[C@@H]5CO[C@@H](C)O[C@H]5[C@H](O)[C@H]3O)[C@H]3COC(=O)[C@H]23)OCO4)cc(OC)c1O [ETOPOSIDE] | 0.5
CNC(=O)Oc1ccc2c(c1)[C@]1(C)CCN(C)[C@@H]1N2C | 22

----------
# Test system: Homo sapiens
# assay.method.text: Oral bioavailability in human
# condition.set: in vivo
metric: F_fraction

CCOc1ccccc1OC(c1ccccc1)C1CNCCO1 (stereo not drawn) [REBOXETINE] | 0.95
O=P1(N(CCCl)CCCl)NCCCO1 (stereo not drawn) [CYCLOPHOSPHAMIDE ANHYDROUS] | 0.74
CC[C@H]1OC(=O)[C@H](C)[C@@H](O[C@H]2C[C@@](C)(OC)[C@@H](O)[C@H](C)O2)[C@H](C)[C@@H](O[C@@H]2O[C@H](C)C[C@H](N(C)C)[C@H]2O)[C@](C)(O)C[C@@H](C)CN(C)[C@H](C)[C@@H](O)[C@]1(C)O [AZITHROMYCIN] | 0.34
CN/C(=N/CCSCc1nc[nH]c1C)NC#N [CIMETIDINE] | 0.68
O=C(c1ccc(F)cc1)C1CCN(CCn2c(=O)[nH]c3ccccc3c2=O)CC1 [KETANSERIN] | 0.5
Nc1nc(=O)[nH]cc1F [FLUCYTOSINE] | 0.84
C[C@@H]1CN(c2c(F)c(N)c3c(=O)c(C(=O)O)cn(C4CC4)c3c2F)C[C@H](C)N1 [SPARFLOXACIN] | 0.92
CC(=O)N[C@H]1[C@H]([C@H](O)[C@H](O)CO)OC(C(=O)O)=C[C@@H]1N=C(N)N [ZANAMIVIR] | 0.03

----------
# assay.method.text: Volume of distribution at steady state in human
# condition.set: in vivo
In this section, each of the compounds is paired with its reported Vd.
metric: Vd (L/kg)

O=[N+]([O-])O[C@@H]1CO[C@H]2[C@@H]1OC[C@@H]2O [ISOSORBIDE MONONITRATE] | 0.7
CN1Cc2c(N)cccc2C(c2ccccc2)C1 (stereo not given) [NOMIFENSINE] | 6
Cc1ncc([N+](=O)[O-])n1CCO [METRONIDAZOLE] | 0.4
COC(=O)C1=C(C)NC(C)=C(C(=O)OCCN(C)Cc2ccccc2)C1c1cccc([N+](=O)[O-])c1 (stereo not given) [NICARDIPINE] | 1
Cc1nnc2n1-c1ccc(Cl)cc1C(c1ccccc1)=NC2 [ALPRAZOLAM] | 0.8
